# Lookup of reported recombinant barcode read abundance (log10) keyed by entry
Assay: recombinant barcode read abundance after kanamycin selection (control-corrected) (log10(CPM+1)); higher = more efficient recombination; sequences stand for … in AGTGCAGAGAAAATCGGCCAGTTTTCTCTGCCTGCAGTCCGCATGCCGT…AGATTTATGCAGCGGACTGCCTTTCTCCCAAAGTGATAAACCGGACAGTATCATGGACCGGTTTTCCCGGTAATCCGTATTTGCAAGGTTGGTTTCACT; site = the 11-nt target
Measure Name: recombinant barcode read abundance (log10)

{"Record Sequence": "GGTCGAGCTTGGGTTCTAACCTGTTGCCT (site GGTCGTGCTAG)", "Number": 0.671}
{"Record Sequence": "CAAGTAGCTTGGGTTCTAACCTGTTGCCT (site CAAGTAGCTAG)", "Number": 0.591}
{"Record Sequence": "CACGAGACTTGGGTTCTAACCTGTTGCCT (site CACGAGGCTAG)", "Number": 1.02}
{"Record Sequence": "CTAGGCCCTTGGGTTCTAACCTGTTGCTT (site CTAGGCCCTAG)", "Number": 0.229}
{"Record Sequence": "GCATGAGCTTGGGTTCTAACCTGTTGCCT (site GCATGAGCTAG)", "Number": 2.09}
{"Record Sequence": "CCATCTCCTTGGGTTCTAACCTGTTGCCT (site CCATCTCCTAG)", "Number": 0.492}
{"Record Sequence": "ACAAGAGCTTGGGTTCTAACCTGTTGCCT (site ACAAGAGCTAG)", "Number": 1.07}
{"Record Sequence": "TCTGAAACTTGGGTTCTAACCTGTTGCTT (site GACACCTCTCG)", "Number": 0.0724}
{"Record Sequence": "TGTCCCTCTTGGGTTCTAACCTGTTGCCT (site TGTGCCTCTAG)", "Number": 0.111}
{"Record Sequence": "CTCGAACCTTGGGTTCTAACCTGTTGCTG (site CTCGAATCTTA)", "Number": 0.077}

###

Experiment: recombinant UMI read abundance after kanamycin selection (control-corrected) (log10(CPM+1)); higher = more efficient recombination; extreme values may be limits of the assay; sequences stand for … in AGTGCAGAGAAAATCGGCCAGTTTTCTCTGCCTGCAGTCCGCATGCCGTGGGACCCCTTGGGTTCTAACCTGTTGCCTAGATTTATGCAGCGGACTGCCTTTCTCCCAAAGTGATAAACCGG…AGGTTGGTTTCACT; site = the 11-nt donor
Classify by recombinant UMI read abundance (log10). Ranges: category 1 = under 0.005, category 2 = from 0.005 up to 0.3, category 3 = 0.3 and over

{"Record Sequence": "TGCTCCCCATGGACCGGTTTTCCCGGTAATCCGTATTTGTA (site TGCTCCCCTTA)", "Cat": "category 2"}
{"Record Sequence": "ATATCACCATGGACCGGTTTTCCCGGTAATCCGTATTTGCT (site ATATCACCTAG)", "Cat": "category 1"}
{"Record Sequence": "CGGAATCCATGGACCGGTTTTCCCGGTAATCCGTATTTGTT (site CAGAATCCTAA)", "Cat": "category 1"}
{"Record Sequence": "AAGCACCCATGGACCGGTTTTCCCGGTAATCCGTATTTGGG (site AAGCACCCTCC)", "Cat": "category 2"}
{"Record Sequence": "AGCAAGGCATGGACCGGTTTTCCCGGTAATCCGTATTTGCA (site AGCAAGGCTTG)", "Cat": "category 3"}
{"Record Sequence": "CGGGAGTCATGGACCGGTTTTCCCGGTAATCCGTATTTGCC (site CGGGAATCTGG)", "Cat": "category 3"}
{"Record Sequence": "GTTGTTTCATGGACCGGTTTTCCCGGTAATCCGTATTTGGT (site GTTGTTACTAC)", "Cat": "category 2"}
{"Record Sequence": "CCTAAGTCATGGACCGGTTTTCCCGGTAATCCGTATTTGCA (site CCTAAGTCTTG)", "Cat": "category 1"}
{"Record Sequence": "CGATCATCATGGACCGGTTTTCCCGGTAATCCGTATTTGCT (site CAATCGTCTAG)", "Cat": "category 1"}
{"Record Sequence": "ATTGTGCCATGGACCGGTTTTCCCGGTAATCCGTATTTGTG (site ATTGTGCCTCA)", "Cat": "category 2"}
{"Record Sequence": "TAAGGAGCATGGACCGGTTTTCCCGGTAATCCGTATTTGGG (site TAAGGAGCTCC)", "Cat": "category 2"}
{"Record Sequence": "TTGAATACATGGACCGGTTTTCCCGGTAATCCGTATTTGCA (site TAGAATACTTG)", "Cat": "category 3"}
{"Record Sequence": "CGTTCATCATGGACCGGTTTTCCCGGTAATCCGTATTTGAT (site CGATCATCTAG)", "Cat": "category 1"}
{"Record Sequence": "GTAAGTTCATGGACCGGTTTTCCCGGTAATCCGTATTTGTC (site GTAAGTTCTGA)", "Cat": "category 3"}
{"Record Sequence": "TGCGGACCATGGACCGGTTTTCCCGGTAATCCGTATTTGCA (site TGCGGACCTTG)", "Cat": "category 1"}
{"Record Sequence": "TTACCCACATGGACCGGTTTTCCCGGTAATCCGTATTTGTG (site TTACCCACTCA)", "Cat": "category 2"}
{"Record Sequence": "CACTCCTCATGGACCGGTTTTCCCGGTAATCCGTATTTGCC (site CATTCCTCTGG)", "Cat": "category 3"}
